# Assay overview: Metabolic stability in rat liver microsomes with NADPH
# Type: in vitro ADME
# Settings: rat, rat liver microsomes; read-out: t½
Recorded metric: half-life (min)

[[record]]
molecular_string = "COc1ccc(-c2cc(=O)c3c(O)c(OC)c(OCCN4CCNC(=O)C4)cc3o2)cc1OC"
assay_value = 71.4


###

# Target desc: UniProt:P10635
# Sequence (P10635 whole entry): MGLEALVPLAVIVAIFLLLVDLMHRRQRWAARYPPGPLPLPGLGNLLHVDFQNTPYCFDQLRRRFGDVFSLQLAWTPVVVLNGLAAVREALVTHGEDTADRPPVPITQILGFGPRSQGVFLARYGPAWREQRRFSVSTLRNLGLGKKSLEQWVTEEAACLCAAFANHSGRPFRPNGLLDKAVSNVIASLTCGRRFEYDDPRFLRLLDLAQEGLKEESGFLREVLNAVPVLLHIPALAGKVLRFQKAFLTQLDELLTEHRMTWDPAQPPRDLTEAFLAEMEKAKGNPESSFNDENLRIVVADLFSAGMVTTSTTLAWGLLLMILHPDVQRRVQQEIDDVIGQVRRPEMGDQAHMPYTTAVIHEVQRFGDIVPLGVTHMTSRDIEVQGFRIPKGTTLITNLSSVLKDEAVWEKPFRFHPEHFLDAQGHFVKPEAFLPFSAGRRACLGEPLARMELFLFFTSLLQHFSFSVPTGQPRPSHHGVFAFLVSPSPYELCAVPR
pIC50: −log10 of the molar value.
Recorded metric: pIC50

[[record]]
molecular_string = "COc1ccc(-c2cc(=O)c3c(O)c(OC)c(OCCN4CCNC(=O)C4)cc3o2)cc1OC"
assay_value = "< 4.30"


###

# Assay overview: Pharmacokinetics in male SD rats (oral and i.v., various formulations)
# Format: in vivo, rat
# Settings: male, SD, rat, plasma, iv, 1 mg/kg, 1 mpk i.v, Formulation Example 1
# Experimental: To examine the pharmacokinetics of the compound after oral administration, rat models were used. Male SD rats (weighed 250 to 300 g) were divided into several groups, each consisting of 3 rats, […], after which the amount of the compound present in the plasma was measured with the passage of time. […]
Recorded metric: AUC(0-inf) (ng·h/mL)

[[record]]
molecular_string = "COc1ccc(-c2cc(=O)c3c(O)c(OC)c(OCCN4CCNC(=O)C4)cc3o2)cc1OC"
assay_value = 149


###

# Assay overview: Pharmacokinetics in male SD rats (oral and i.v., various formulations)
# Format: in vivo, rat
# Settings: male, SD, plasma, iv, 1 mg/kg; rat, 1 mpk i.v, Formulation Example 1; read-out: CLP (converted)
Recorded metric: clearance (mL/min/kg)

[[record]]
molecular_string = "COc1ccc(-c2cc(=O)c3c(O)c(OC)c(OCCN4CCNC(=O)C4)cc3o2)cc1OC"
assay_value = 112


###

# Assay overview: Pharmacokinetics in male SD rats (oral and i.v., various formulations)
# Assay type: in vivo, rat
# Settings: male, SD, plasma, iv, 1 mg/kg; rat, 1 mpk i.v, Formulation Example 1 (100% DMSO)
Recorded metric: C0 (ng/mL)

[[record]]
molecular_string = "COc1ccc(-c2cc(=O)c3c(O)c(OC)c(OCCN4CCNC(=O)C4)cc3o2)cc1OC"
assay_value = 506


###

# Assay overview: Pharmacokinetics in male SD rats (oral and i.v., various formulations)
# Type: in vivo, rat
# Settings: male, SD, rat, plasma, po, 10 mg/kg, 10 mpk po, Formulation Example 4; NMP/ethanol/PEG200/saline vehicle
Recorded metric: Tmax (min)

[[record]]
molecular_string = "COc1ccc(-c2cc(=O)c3c(O)c(OC)c(OCCN4CCNC(=O)C4)cc3o2)cc1OC"
recorded_metric = "Tmax"
unit_string = "min"
assay_value = 15


###

# Assay overview: Pharmacokinetics in male SD rats (oral and i.v., various formulations)
# Assay type: in vivo, rat
# Settings: male, SD, rat, plasma, po, 200 mg/kg, 200 mpk po, Formulation Example 2
Recorded metric: Tmax

[[record]]
molecular_string = "COc1ccc(-c2cc(=O)c3c(O)c(OC)c(OCCN4CCNC(=O)C4)cc3o2)cc1OC"
assay_value = "1 h"


###

# Assay overview: Pharmacokinetics in male SD rats (oral and i.v., various formulations)
# Assay type: in vivo, rat
# Settings: male, SD, plasma, iv, 1 mg/kg; rat, 1 mpk i.v, Formulation Example 1
Recorded metric: Vd (L/kg)

[[record]]
molecular_string = "COc1ccc(-c2cc(=O)c3c(O)c(OC)c(OCCN4CCNC(=O)C4)cc3o2)cc1OC"
unit_string = "L/kg"
assay_value = 3.6

